Compiled record: pIC50 values for UniProt:P00746 across several sources.
pIC50: −log10 of the molar value.

These solved cases illustrate the format of a correct answer.
NCc1cccc(-c2nc(COc3ccccc3CC(=O)O)nn3cccc23)c1
> 6.00
NC(=O)N1CC(NC(=O)[C@@H]2CCC[C@H]2C(=O)NCc2cccc(Cl)c2F)c2ccccc21 (stereo partly shown)
< 5.00
Nc1ncnc2c1ccn2CC(=O)N1C[C@H](F)C[C@H]1C(=O)Nc1cccc(Br)n1
6.00 to 7.00
CC(=O)c1nn(CC(=O)N2C[C@@]3(F)COCCCCCCc4ccc(Br)nc4NC(=O)[C@@H]2C3)c2cnc(-c3cnc(C)nc3)cc12
> 6.00
CC(=O)c1cn(CC(=O)N2C[C@@](F)(CF)C[C@H]2C(=O)Nc2nc(C(F)(F)F)ccc2C)c2c(C)nc(-c3cnc4cc(C)nn4c3)cc12
> 6.00

[ask] // fetch UniProt:P00746 pIC50 for NC(=O)c1nn(CC(=O)N2C[C@H](F)C[C@H]2C(=O)Nc2cccc(-c3ccccc3Cl)c2F)c2ccsc12
[reply] > 6.00

[ask] // fetch UniProt:P00746 pIC50 for CC(=O)c1nn(CC(=O)N2[C@H]3C[C@]4(C[C@@H]24)Cn2ccc(n2)C=CCCC(F)(F)c2ccc(Br)nc2NC3=O)c2cnc(-c3cnc(C)nc3)cc12
[reply] > 6.00

----------
Compiled record: IC50 values for UniProt P00746 across several sources.

These solved cases illustrate the format of a correct answer.
CC(=O)c1nn(CC(=O)N2[C@H]3C[C@@]4(COCCCCCCc5ccc(Br)nc5NC3=O)C[C@@H]24)c2cnc(-c3cnc(C)nc3)cc12
< 1000 nM
CC(=O)Nc1ccc(C(=O)N2C[C@H](F)C[C@H]2C(=O)NCc2cccc(Cl)c2F)cn1
> 10000 nM

[ask] Request the reported IC50 associated with CC(=O)c1nn(CC(=O)N2[C@H]3C[C@]4(C[C@@H]24)Cn2ccc(n2)/C=C\COCc2ccc(Br)nc2NC3=O)c2cnc(-c3cnc(C)nc3)cc12
[reply] < 1000 nM

[ask] Request the reported IC50 associated with CC(=O)c1nn(CC(=O)N2[C@H]3C[C@@]4(CNC(=O)C(C)(C)CCCCc5ccc(Br)nc5NC3=O)C[C@@H]24)c2cnc(-c3cnc(C)nc3)cc12
[reply] < 1000 nM

[ask] Request the reported IC50 associated with CC(=O)c1nn(CC(=O)N2[C@H]3C[C@]4(C[C@@H]24)Cn2cc(nn2)COCc2ccc(Br)nc2NC3=O)c2cnccc12
[reply] < 1000 nM

[ask] Request the reported IC50 associated with CC(=O)c1cn(CC(=O)N2[C@H](C(=O)Nc3nc(C(F)(F)F)ccc3Cl)C[C@@]3(C)C[C@@H]23)c2c(C)nc(-c3cnc(C)nc3)cc12
[reply] < 1000 nM

----------
Compiled record: pIC50 values for UniProtKB P00746 across several sources.
pIC50: −log10 of the molar value.

These solved cases illustrate the format of a correct answer.
CC(=O)c1nn(CC(=O)N2[C@H]3C[C@@]4(CCCCCCCOCc5ccc(Br)nc5NC3=O)C[C@@H]24)c2cnc(-c3cnc(C)nc3)cc12
> 6.00
CC(=O)n1cc(NC(=O)[C@@H]2C[C@H](F)CN2C(=O)NCc2ccccc2)c2ccccc21
< 5.00
CC(=O)c1nn(CC(=O)N2[C@H]3C[C@@]4(CNC(=O)C(C)(C)CCCOCc5ccc(C(F)(F)F)nc5NC3=O)C[C@@H]24)c2cnc(-c3cnc(C)nc3)cc12
> 6.00

[ask] // fetch UniProtKB P00746 pIC50 for CC(C)(C)OC(=O)N[C@@H](Cc1c[nH]c2ccccc12)C(=O)N1C[C@H](F)C[C@H]1C(=O)NCc1cccc(Cl)c1F
[reply] < 5.00

[ask] // fetch UniProtKB P00746 pIC50 for COCc1ccc(C(F)(F)F)nc1NC(=O)[C@@H]1C[C@@]2(C)C[C@H]2N1C(=O)Cn1cc(C(C)=O)c2cc(-c3cnc(C)nc3)nc(C)c21
[reply] > 6.00

[ask] // fetch UniProtKB P00746 pIC50 for CC(=O)c1nn(CC(=O)N2[C@H]3C[C@@]4(COCC=CCOCc5ccc(Br)nc5NC3=O)C[C@@H]24)c2ccc(-c3cnc(C)nc3)cc12
[reply] > 6.00

[ask] // fetch UniProtKB P00746 pIC50 for CC(=O)c1nn(CC(=O)N2[C@H]3C[C@]4(C[C@@H]24)CN(C)CCCCCCc2ccc(Br)nc2NC3=O)c2cnc(-c3cnc(C)nc3)cc12
[reply] > 6.00

[ask] // fetch UniProtKB P00746 pIC50 for CC(=O)n1cc(C(=O)C(=O)N2C[C@H](F)C[C@H]2C(=O)NCc2cccc(Cl)c2F)c2ccccc21
[reply] < 5.00

[ask] // fetch UniProtKB P00746 pIC50 for Cc1ccc2c(c1)c1c(N)ncnc1n2CC(=O)N1[C@@H]2C[C@@H]2C[C@H]1C(=O)Nc1cccc(Br)n1
[reply] > 7.00

[ask] // fetch UniProtKB P00746 pIC50 for Cc1ncc(-c2cc3c4c(c2)c(C#N)nn4CC(=O)N2[C@H](C(=O)Nc4nc(C(F)(F)F)ccc4C)C[C@@]4(CNC(=O)CCCC=CC3)C[C@@H]24)cn1
[reply] > 6.00

[ask] // fetch UniProtKB P00746 pIC50 for Cc1ccc(Br)nc1NC(=O)[C@@H]1C[C@H]2C[C@H]2N1C(=O)Cc1ccc2c(N)ncnn12
[reply] < 6.00

[ask] // fetch UniProtKB P00746 pIC50 for NCc1cccc(-c2nc(C(=O)Nc3ccccc3CC(=O)O)nc3[nH]ccc23)c1
[reply] > 6.00

[ask] // fetch UniProtKB P00746 pIC50 for CC(=O)n1cc(NC(=O)[C@H]2CCCN2C(=O)Nc2cccc(OC(F)(F)F)c2F)c2ccccc21
[reply] < 5.00

----------
Compiled record: IC50 values for Complement factor D (Homo sapiens, UniProt P00746) across several sources.

These solved cases illustrate the format of a correct answer.
C=C(F)c1nn(CC(=O)N2C[C@H](F)C[C@H]2C(=O)NCc2cccc(Cl)c2F)c2cnccc12
< 1000 nM
O=C(NCc1cccc(Cl)c1F)[C@@H]1C[C@@H](F)CN1C(=O)Nc1cn(C(=O)C2CC2)c2ccccc12
< 1000 nM

[ask] Request the reported IC50 associated with COc1ccc2c(O[C@@H]3C[C@@H](C(=O)NCc4cccc(Cl)c4F)N(C(=O)Nc4cn(C(C)=O)c5ccccc45)C3)cc(-c3ccccc3)nc2c1
[reply] > 10000 nM

[ask] Request the reported IC50 associated with CCOC(=O)Cc1ccccc1NC(=O)c1nc(-c2cccc(CN)c2)c2cccn2n1
[reply] < 1000 nM

[ask] Request the reported IC50 associated with C[C@@]12C[C@@H](C(=O)Nc3cccc(Br)n3)N(C(=O)Cn3c4ccccc4c4c(N)ncnc43)[C@@H]1C2
[reply] < 100 nM

[ask] Request the reported IC50 associated with COc1ncc(-c2cn(CC(=O)N3C[C@H](F)C[C@H]3C(=O)Nc3cccc(-c4ccccc4Cl)c3F)nc2C(N)=O)cn1
[reply] > 10000 nM

----------
Compiled record: IC50 values for Complement factor D (Homo sapiens) across several sources.

These solved cases illustrate the format of a correct answer.
CC(=O)c1cn(CC(=O)N2[C@H](C(=O)N[C@@H](C)C(F)=C(C)C)C[C@@]3(C)C[C@@H]23)c2c(C)nc(-c3cnc(C)nc3)cc12
< 1 µM
CC(=O)n1cc(NC(=O)[C@@H]2C[C@H](F)CN2C(=O)NCc2cccc(Cl)c2F)c2ccccc21
> 10 µM
CC(=O)n1cc(NC(=O)[C@H]2CC(F)(F)CN2C(=O)NCc2cccc(Cl)c2F)c2ccccc21
> 10 µM
CC(=O)c1nn(CC(=O)N2[C@H]3C[C@@]4(COCC=CCOCc5ccc(Br)nc5NC3=O)C[C@@H]24)c2c(C)nc(-c3cnc(C)nc3)cc12
< 1 µM
Cc1ccc(Br)nc1NC(=O)[C@@H]1C[C@H]2C[C@H]2N1C(=O)Cn1c2ccccc2c2c(N)ncnc21
< 0.1 µM

[ask] Request the reported IC50 associated with CC(=O)n1cc(NC(=O)[C@H]2CC(F)(F)CN2C(=O)Cc2cccc(Cl)c2F)c2ccccc21
[reply] > 10 µM

[ask] Request the reported IC50 associated with CC(=O)c1nn(CC(=O)N2[C@H]3C[C@@]4(CNC(=O)C(C)(C)CCCCCc5ccc(Br)nc5NC3=O)C[C@@H]24)c2cnc(-c3cnc(C)nc3)cc12
[reply] < 1 µM

[ask] Request the reported IC50 associated with NCc1cccc(-c2nc3c(c(C(=O)Nc4ccccc4CC(=O)O)n2)CCC3)c1
[reply] < 1 µM

[ask] Request the reported IC50 associated with CC(=O)c1nn(CC(=O)N2C[C@@]3(F)COCCCCCCCc4ccc(Br)nc4NC(=O)[C@@H]2C3)c2c(C)nc(-c3cnc(C)nc3)cc12
[reply] < 1 µM

[ask] Request the reported IC50 associated with CC(=O)c1nn(CC(=O)N2[C@H]3C[C@@]4(CNC(=O)C(C)(C)C=CCOCc5ccc(C(F)(F)F)nc5NC3=O)C[C@@H]24)c2cnc(-c3cnc(C)nc3)cc12
[reply] < 1 µM
